meta.source: PubChem BioAssay (Tox21)

- TEST_SYSTEM: 5-hydroxytryptamine receptor 2A (Homo sapiens)
- RUN_DESCRIPTION: 5-hydroxytryptamine receptor 2A (HTR2A) small molecule antagonists, cell-based qHTS assay (AID 1963586); further: nearly all actives have a fitted effect of over 45% in size
- CONDITION_LABEL: HTR2A-CHO cells, DOI-induced calcium flux, fluorescence; series mostly up to 61.5 µM
Inconclusive results are not listed. Calls of active or inactive are those of the source. The call rests on the fitted dose curve. Peptide text beside a SMILES is read from it.
Your answer must be one of the following: TRUE for active, FALSE for inactive

// outcome(item) with item = S=C=NCCc1ccccc1 FALSE

Test call, this molecule: Cc1ccccc1OP(=O)(Oc1ccccc1C)Oc1ccccc1C FALSE

Per the records of this test, what outcome belongs to CC(C)(OO)c1ccccc1 ? FALSE

Outcome? CCCCC(O)(Cn1cncn1)c1ccc(Cl)cc1Cl (stereo unspecified) FALSE

Please indicate how the test categorized CC(=O)NNc1ccccc1 . FALSE

Can you look up the reported call for C[C@H]1[C@H](c2ccc(Cl)cc2)SC(=O)N1C(=O)NC1CCCCC1 for me? FALSE

Each molecule tested received a call. Report the one for COC(=O)C1=CCCN(C)C1 . FALSE

Fill in: this test's call for CCOP(=O)(Sc1ccccc1)Sc1ccccc1 is ___ FALSE

Each molecule tested received a call. Report the one for CC1(C)[C@H](/C=C2\CCSC2=O)[C@@H]1C(=O)OCc1coc(Cc2ccccc2)c1 . TRUE

Status in this test for C=C(C)CN(CC)c1c([N+](=O)[O-])cc(C(F)(F)F)cc1[N+](=O)[O-] ? FALSE

Give the logged outcome of this assay for the following molecule: COC(=O)c1cc(Oc2ccc(Cl)cc2Cl)ccc1[N+](=O)[O-] FALSE

For CC(=O)N[C@@H](CO)C(=O)N[C@@H](CC(=O)O)C(=O)N[C@@H](CCCCN)C(=O)N1CCC[C@H]1C(=O)O (Ac-SDKP-OH) , what call appears in the results of this test? FALSE

Hello, I am checking results. What call was entered for C[As+](C)(C)CC(=O)[O-] ? FALSE

For this molecule, state the assay outcome: CNC(C)Cc1ccc2c(c1)OCO2 (stereo unspecified) TRUE

Recorded test call requested for C1=CCC=C1 FALSE

Record request — test call for CSC(C)(C)/C=N/O FALSE

Lab log entry: CSc1ccc(C(=O)C(C)(C)N2CCOCC2)cc1 — outcome as called in the assay? FALSE

Each molecule tested received a call. Report the one for Cc1c(F)c(F)c(COC(=O)C2C(/C=C(\Cl)C(F)(F)F)C2(C)C)c(F)c1F (stereo unspecified) . FALSE

Can you look up the reported call for OC(Cn1cncn1)(c1ccc(F)cc1)c1ccccc1F (stereo unspecified) for me? FALSE

Identify the outcome logged in this assay for the molecule shown: CC(Cc1ccc(OCC(=O)O)cc1)NCC(O)c1csc(C(F)(F)F)n1 (stereo unspecified) FALSE

I'd appreciate the recorded outcome for CNC(=O)Oc1cccc(C(C)C)c1 from this test. FALSE

Assay result, entry O=C(O)c1cc[c]([Hg][Cl])cc1 — outcome? FALSE

Called result for O=CC=O FALSE

Give the logged outcome of this assay for the following molecule: CC1C(=O)C[C@]2(C(C)C)C[C@H]12 (stereo partly specified) FALSE

Query: recorded result category for CC(Cl)C(C)Cl (stereo unspecified) in this test FALSE

I would be grateful if you could indicate the recorded call for O=[Se]=O . FALSE

Test call, this molecule: CCS(=O)(=O)C(C)(C)S(=O)(=O)CC FALSE

Query: recorded result category for O=[N+]([O-])c1ccc2ccc3cccc4ccc1c2c34 in this test FALSE

Test call for this molecule, please: CCCCN(CCCC)C(=S)[S-].CCCCN(CCCC)C(=S)[S-].[Zn+2] FALSE

Hi, do you know how O=C(Nc1ccc(F)cc1F)c1cccnc1Oc1cccc(C(F)(F)F)c1 came out in this test? FALSE

Which outcome was entered for the molecule ClC(Cl)Br in this test? FALSE

GET /call?item= C/C=C/C=O returns the recorded outcome of this test. FALSE

Kindly provide the recorded test outcome for the following molecule: Cc1ccc2ccccc2c1C FALSE

What outcome does the record of this test show for COP(=S)(OC)Oc1ccc([N+](=O)[O-])cc1Cl ? FALSE

Query: recorded result category for N#CC(C#N)=C(C#N)C#N in this test FALSE

Fill in: this test's call for CC(C)(C)C(O)C(Oc1ccc(-c2ccccc2)cc1)n1cncn1 (stereo unspecified) is ___ FALSE

Check the results log: what was the call for CC(=O)CN(CC(C)=O)N=O ? FALSE

Assay result, entry ClP(Cl)(Cl)(Cl)Cl — outcome? FALSE

Which outcome was assigned to C=CC(=O)OCC in this test? FALSE

Assay outcome for COCC(C)N(C(=O)CCl)c1c(C)csc1C (stereo unspecified) : what was it? FALSE

Called result for CCCCC(=O)Cl FALSE

Write down the call the test reported for this molecule. Item: CCOP(=S)(OCC)Oc1ccc(Cl)cc1Cl FALSE

Test call, this molecule: CCCCCCCCBr FALSE

Hi, sorry to bother you, what did the test record for Clc1ccc(-c2ccc(Cl)c(Cl)c2Cl)c(Cl)c1Cl ? FALSE

Recorded test call requested for O=C(Nc1ccccc1)N(Cc1ccc(Cl)cc1)C1CCCC1 FALSE

Lab log entry: CC(C)C(=O)Cl — outcome as called in the assay? FALSE

Which result was noted for this molecule in the test: c1coc(-c2nc3ccccc3[nH]2)c1 FALSE

Hey, what did the test say about CC(C)CC#N ? FALSE

Hey, what did the test say about OC(c1ccc(F)cc1)(c1cncnc1)c1ccccc1Cl (stereo unspecified) ? FALSE

Hey, what did the test say about N#Cc1cc(I)c(O)c(I)c1 ? FALSE

Could you please tell me the result logged for CC(=O)NC1CCSC1=O (stereo unspecified) in this assay? FALSE

In this assay, the call recorded for CCCN(CCC)c1c([N+](=O)[O-])cc(S(N)(=O)=O)cc1[N+](=O)[O-] was what? FALSE

I'd appreciate the recorded outcome for Fc1ccc(Oc2ccnc3cc(Cl)cc(Cl)c23)cc1 from this test. FALSE

// param item: CCOC(=O)Cc1ccccc1 ; yields the recorded call FALSE

Recorded test call requested for CC(=O)[O-].CC(=O)[O-].[Hg+2] FALSE

Could you check what this test reported for CC(C)[C@@H](C(=O)O[C@@H](C#N)c1cccc(Oc2ccccc2)c1)c1ccc(Cl)cc1 ? FALSE
